Hi there, I'd appreciate the recorded protein stability index for every entry that follows.
TEST NAME: protein stability index of a GFP-peptide fusion (GPS, HEK-293T) (PSI 1-6); higher = more stable;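 note: 24-mer peptide tiles fused after GFP, lentivirally expressed, FACS-sorted into six equal bins by GFP/DsRed ratio, decoded by Illumina sequencing, PSI is the read-weighted mean bin number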
DETAILS: treatment: MLN4924 1 uM, 8 h; c terminus: a fixed tail appended
# output: bare number, no unit

Entry TSGKRYVYRFVCDLQNLLGFTPEE [ETS2] has what protein stability index?
2.89

Could you tell me which protein stability index is on file for KEKEQENERKVAQLAEENERLKQE [DDIT3] ?
5.55

What value of protein stability index has been reported for the following sequence? YDILPLSPVSRNRLAQVKRKILVL [CTDNEP1]
2.35

So what does the record say about protein stability index for LPELKANPFKERICRVFSTSPAKD [CIB1] ?
3.58

# protein stability index lookup, item ETYMSADDLRINLWHLAITDRSFN [PPP2R2C]
2.36

# input sequence: LGPSGLQNHGQHLILSREASWAKP [LCOR] ; wanted: its protein stability index
3.18

Can you share its protein stability index? I mean this sequence: SYPVMGFEFQVRVCDSCYDSIKDE [WDFY1]
3.06

protein stability index for ETALYRKMLGNPSRLPAKCPGKGA [FKBP8] ?
3.62

protein stability index for GERVAARGYWGDIATGPFVAFGIE [DNAAF3] ?
2.35

Which protein stability index value belongs to LICAISHTHRAHTVVPLDDATQEY [TRIM39] ?
2.51
